test system: MDR1; assay: Efflux ratio of permeability across basolateral to apical side over apical to basolateral side in MDCK2-MDR1 cells; format: ADME, cell-based, Canis lupus familiaris; settings: dog, MDCK-MDR1
Measurement label: efflux ratio

Illustrative cases are given below, each with its answer.
INSERT INTO results (compound, number) VALUES
  ('CN1CCCc2c1nc(N1CCC3(CC1)C(=O)N(CCO)c1cc(F)cc(F)c13)[nH]c2=O', 24.6),
  ('CN1CCCc2c1nc(N1CCC3(CC1)C(=O)N(CC(O)CO)c1cc(F)cc(F)c13)[nH]c2=O (configuration not stated)', 43.7),
  ('CN1CCC(Oc2cc(F)c3c(c2)N(C)C(=O)C32CCN(c3nc4c(c(=O)[nH]3)CCCN4C)CC2)CC1', 11.7),
  ('CN1CCN(c2cc(F)c3c(c2)N(C)C(=O)C32CCN(c3nc4c(c(=O)[nH]3)CCCN4C)CC2)CC1', 13.2),
  ('CN1CCCc2c1nc(N1CCC3(CC1)C(=O)N(C)c1cc(OCCO)cc(F)c13)[nH]c2=O', 14.9);

(a) C[C@@H]1CN(c2cc(F)c3c(c2)N(C)C(=O)C32CCN(c3nc4c(c(=O)[nH]3)CCCN4C)CC2)C[C@H](C)N1
(b) CN1CCCc2c1nc(N1CCC3(CC1)C(=O)N(CC(F)(F)F)c1cc(F)cc(F)c13)[nH]c2=O
(c) CN1CCCc2c1nc(N1CCC3(CC1)C(=O)N(CC1COC1)c1cc(F)cc(F)c13)[nH]c2=O
Prompt: Could you please sort these 3 entries by efflux ratio from high to low? Output spec: labels arranged per the requested ranking.
Completion: a, c, b
